Biological target: ENL YEATS domain (AviSUMO-ENL YEATS) (Homo sapiens)
Construct: encoding ENL YEATS (aa 1−148) was cloned in pET28a-; made in house; host or cells: E. coli BL21(DE3pLysS), co-expressed with BirA (pBirAcm)
Sequence (Q03111 1-148): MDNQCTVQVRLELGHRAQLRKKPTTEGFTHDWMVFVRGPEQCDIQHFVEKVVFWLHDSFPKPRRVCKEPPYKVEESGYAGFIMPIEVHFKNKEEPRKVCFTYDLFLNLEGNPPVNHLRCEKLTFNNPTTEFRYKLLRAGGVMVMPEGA
Test: Phage panning of BuK-containing 7-mer library against AviSUMO-ENL YEATS with Illumina NGS abundance
Conditions: sheet ENLR3: round 3 of selection against ENL YEATS; TAG = amber codon (BuK)
Measured n (number of NGS reads of the 7-mer sequence V1-V7) accompanies every entry in the list below.

Worked examples, 6 substances total:
{"SUBSTANCE": "SWSITFTAG", "TEST RESULT": 1}
{"SUBSTANCE": "RTVYCHTAG", "TEST RESULT": 1}
{"SUBSTANCE": "TAGDVYCYTAG", "TEST RESULT": 1}
{"SUBSTANCE": "TAGCGPRYD", "TEST RESULT": 1}
{"SUBSTANCE": "STAGTEIYC", "TEST RESULT": 1}
{"SUBSTANCE": "STVYCYTAG", "TEST RESULT": 1}

Kindly consider the entry below.
Query :: // query n (number of NGS reads of the 7-mer sequence V1-V7) value for entry `STTAGKLFI`
Result :: 1

Measured values drawn from paper PMC11046469 for this set.
